Test system: S. aureus ATCC 25923
ASSAY: MIC, broth dilution, S. aureus
Type: cell-based, Staphylococcus aureus
EXPERIMENTAL_CONDITIONS: Staphylococcus aureus, ATCC25923; S. aureus ATCC 25923, 18 h; read-out: MIC Sa
Entries whose MIC is below 100 µM take true; entries at or above 100 µM take false.

Exercise: For this compound, is MIC lower than 100 µM? COc1cccc2c(C(=O)NCCCNCCCCCCCCNCCCNC(=O)c3c[nH]c4c(OC)cccc34)c[nH]c12 [Compound 17d]
Key: false

Exercise: For this compound, is MIC lower than 100 µM? Cc1cccc2c(C(=O)NCCCNCCCCCCCCCCNCCCNC(=O)c3c[nH]c4c(C)cccc34)c[nH]c12 [Compound 18e]
Key: true

Exercise: For this compound, is MIC lower than 100 µM? [H]/N=C(/N)N[C@H]1[C@H](O)[C@@H](O)[C@H](O[C@@H]2O[C@@H](C)[C@](O)(C=O)[C@H]2O[C@@H]2O[C@@H](CO)[C@H](O)[C@@H](O)[C@@H]2NC)[C@@H](N/C(N)=N\[H])[C@@H]1O [Streptomycin, reference compound]
Key: true

Exercise: For this compound, is MIC lower than 100 µM? O=C(NCCCNCCCCCCCCNCCCNC(=O)c1c[nH]c2ccc(Br)cc12)c1c[nH]c2ccc(Br)cc12 [Compound 13d]
Key: true

Exercise: For this compound, is MIC lower than 100 µM? COc1cccc2c(C(=O)NCCCNCCCCCCNCCCNC(=O)c3c[nH]c4c(OC)cccc34)c[nH]c12 [Compound 17b]
Key: false

Exercise: For this compound, is MIC lower than 100 µM? O=C(NCCCNCCCCNCCCNC(=O)c1c[nH]c2c(F)cccc12)c1c[nH]c2c(F)cccc12 [Compound 16a]
Key: false
